Molecular target: Cytochrome P450 3A4 (Homo sapiens) (UniProt P08684)
Sequence (P08684 whole entry, looked up): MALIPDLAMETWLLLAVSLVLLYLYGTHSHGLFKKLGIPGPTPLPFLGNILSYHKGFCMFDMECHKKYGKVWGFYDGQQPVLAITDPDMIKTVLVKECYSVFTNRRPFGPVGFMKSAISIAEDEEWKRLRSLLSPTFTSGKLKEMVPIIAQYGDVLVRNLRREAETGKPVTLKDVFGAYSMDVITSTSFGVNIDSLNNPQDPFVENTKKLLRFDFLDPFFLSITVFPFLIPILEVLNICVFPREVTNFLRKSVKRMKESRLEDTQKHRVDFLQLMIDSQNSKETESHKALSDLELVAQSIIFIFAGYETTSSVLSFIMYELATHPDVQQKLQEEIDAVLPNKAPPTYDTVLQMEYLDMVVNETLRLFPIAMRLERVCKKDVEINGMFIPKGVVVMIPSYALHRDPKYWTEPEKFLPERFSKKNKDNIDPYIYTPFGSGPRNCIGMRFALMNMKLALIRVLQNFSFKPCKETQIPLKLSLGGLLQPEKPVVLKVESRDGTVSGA
Assay: Cytochrome panel assay with activity outcomes
Conditions: recombinant CYP, pro-luciferin dealkylation, luminescence, p450-cyp3a4; series mostly up to 57.1 µM
About 5,100 (32%) of roughly 16,000 compounds were called active. About 25% were inconclusive and are not listed. The list shows a part of the results.
Quantity name: AC50

Some compounds with recorded AC50:
Compound: CCC(=O)Nc1ccc(C(=O)NNC(=O)c2cccs2)cc1
Quantity name: AC50
Measured value: inactive
//
Compound: COc1c(N2CCN(C(=S)Nc3ccc(F)cc3)C(C)C2)c(F)cc2c(=O)c(C(=O)O)cn(C3CC3)c12 (stereo not given)
Quantity name: AC50
Measured value: inactive
//
Compound: O=C(CCCC(=O)OCC(=O)c1ccc(Cl)cc1Cl)Nc1cc(C(F)(F)F)ccc1Cl
Quantity name: AC50
Measured value: 22.4 µM (active)
//
Compound: O=C(COc1cccc2ccccc12)NNC(=O)c1cccs1
Quantity name: AC50
Measured value: 25.1 µM (active)

Q: Look at this compound and give its reported AC50. c1ccc(C2OCC3(CO2)COC(c2ccccc2)OC3)cc1 (stereo not given)
A: inactive
